- Test system: PDE-5A
- experiment: Table 4 PDE-5A (% of control)
- Type: cell-based
- conditions-used: control group = 100 (%)
Counter-ions that a name gives are not always drawn.
measured-quantity: PDE-5A (%)
// units = %; emit number, no label

[
  {
    "molecule": "Cn1c(=O)c2c(ncn2CCN2CCN(c3ccccc3[N+](=O)[O-])CC2)n(C)c1=O [KMUP-4 HCl]",
    "measured-quantity": "PDE-5A",
    "value": 73.4
  },
  {
    "molecule": "Cl.Cn1c(=O)c2c(ncn2CCN2CCN(c3ccccc3Cl)CC2)n(C)c1=O [KMUP-1 HCl]",
    "measured-quantity": "PDE-5A",
    "value": 64.5
  }
]

Query: Would you mind telling me what PDE-5A value was observed for Cl.Cn1c(=O)c2c(ncn2CCN2CCN(c3ccc([N+](=O)[O-])cc3)CC2)n(C)c1=O [KMUP-3 HCl] ?
Reply: 63.6

Query: Could you share which PDE-5A value was measured for COc1ccccc1N1CCN(CCn2cnc3c2c(=O)n(C)c(=O)n3C)CC1 [KMUP-2 HCl] ?
Reply: 68.8
